# ASSAYED_TARGET: T1, hCDH6aa54-615 APPavi (human, UniProt P55285 54-615)
# T1 sequence: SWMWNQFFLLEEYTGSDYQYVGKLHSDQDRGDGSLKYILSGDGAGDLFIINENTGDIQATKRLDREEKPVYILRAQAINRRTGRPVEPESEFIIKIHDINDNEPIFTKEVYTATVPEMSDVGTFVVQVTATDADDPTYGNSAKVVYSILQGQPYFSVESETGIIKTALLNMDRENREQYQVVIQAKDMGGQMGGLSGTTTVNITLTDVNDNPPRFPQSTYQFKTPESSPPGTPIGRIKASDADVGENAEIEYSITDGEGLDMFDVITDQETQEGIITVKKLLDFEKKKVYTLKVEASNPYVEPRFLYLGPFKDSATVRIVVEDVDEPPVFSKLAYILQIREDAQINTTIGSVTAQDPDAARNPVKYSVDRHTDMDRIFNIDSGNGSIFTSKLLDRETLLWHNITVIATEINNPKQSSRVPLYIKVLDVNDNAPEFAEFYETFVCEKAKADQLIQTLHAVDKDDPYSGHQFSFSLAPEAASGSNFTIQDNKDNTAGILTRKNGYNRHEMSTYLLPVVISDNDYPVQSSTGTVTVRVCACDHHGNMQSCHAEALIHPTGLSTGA
# PROTOCOL: SPR binning
QUANTITY_KIND: response of secondary antibody on primary antibody-CDH6 complex

[
  {
    "BINDER": "NOV1126 (antibody, human IgG1, lambda, V domains shown) VH: EVQLLESGGGLVQPGGSLRLSCAASGFTFSDHAIDWVRQAPGKGLEWVSVIAGSGSITYYADSVKGRFTISRDNSKNTLYLQMNSLRAEDTAVYYCARDTGVYREYMDVWGQGTLVTVSS VL: SYELTQPLSVSVALGQTARITCSGDAIGTKFAHWYQQKPGQAPVLVIYYDHERPSGIPERFSGSNSGNTATLTISRAQAGDEADYYCYSRASSNLVFGGGTKLTVLG",
    "RECORDED_NUMBER": 36.9
  },
  {
    "BINDER": "NOV0710 (antibody, human IgG1, kappa, V domains shown) VH: QVQLLESGGGLVQPGGSLRLSCAASGFTFSSYAMSWVRQAPGKGLEWVSVIRSSGSSTYYADSVKGRFTISRDNSKNTLYLQMNSLRAEDTAVYYCARGGGYFDYWGQGTLVTVSS VL: DIQMTQSPSSLSASVGDRVTITCRASQSISLWLNWYQQKPGKAPKLLIYAASTLQSGVPSRFSGSGSGTDFTLTISSLQPEDFATYYCQQYYTSPYTFGQGTKVEIKR",
    "RECORDED_NUMBER": -3.56
  },
  {
    "BINDER": "NOV0719 (antibody, human IgG1, kappa, V domains shown) VH: QVQLLESGGGLVQPGGSLRLSCAASGFTFSSHWVHWVRQAPGKGLEWVSVISYMGSSTYYADSVKGRFTISRDNSKNTLYLQMNSLRAEDTAVYYCARGSYDMAFDVWGQGTLVTVSS VL: DIQMTQSPSSLSASVGDRVTITCRASQSIVSYLNWYQQKPGKAPKLLIYDASSLQSGVPSRFSGSGSGTDFTLTISSLQPEDFATYYCQQSGSHSITFGQGTKVEIKR",
    "RECORDED_NUMBER": 16.1
  },
  {
    "BINDER": "NOV0692 (antibody, human IgG1, lambda, V domains shown) VH: QVQLVESGGGLVKPGGSLRLSCAASGFTFSRYWMDWVRQAPGKGLEWVGRIKSKANGGITDYAAPVKGRFTISRDDSKNTLYLQMNSLKTEDTAVYYCARGMTFLGIWGQGTLVTVSS VL: DIELTQPPSVSVSPGQTASITCSGDSIGSKYAQWYQQKPGQAPVLVIYYNSERPSGIPERFSGSNSGNTATLTISGTQAEDEADYYCQSWDGQSTIRVFGGGTKLTVLG",
    "RECORDED_NUMBER": 17.9
  },
  {
    "BINDER": "NOV0712 (antibody, human IgG1, kappa, V domains shown) VH: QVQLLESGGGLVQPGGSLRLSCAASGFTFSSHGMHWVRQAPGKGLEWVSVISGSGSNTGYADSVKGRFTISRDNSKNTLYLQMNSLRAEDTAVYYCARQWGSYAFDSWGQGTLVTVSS VL: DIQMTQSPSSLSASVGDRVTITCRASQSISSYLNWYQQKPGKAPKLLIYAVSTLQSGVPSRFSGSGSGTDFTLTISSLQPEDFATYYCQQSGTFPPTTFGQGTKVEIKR",
    "RECORDED_NUMBER": -3.26
  },
  {
    "BINDER": "NOV1127 (antibody, human IgG1, kappa, V domains shown) VH: QVQLQQSGPGLVKPSQTLSLTCAISGDSVSSQSAAWNWIRQSPSRGLEWLGRIYYRSKWYNDYAVSVKSRITINPDTSKNQFSLQLNSVTPEDTAVYYCARERSYRDYFDYWGQGTLVTVSS VL: DIQMTQSPSSLSASVGDRVTITCRASQGIFTYLNWYQQKPGKAPKLLIYAASTLQSGVPSRFSGSGSGTDFTLTISSLQPEDFATYYCQQYYSTSLTFGQGTKVEIKR",
    "RECORDED_NUMBER": 30.9
  },
  {
    "BINDER": "NOV1132 (antibody, human IgG1, lambda, V domains shown) VH: QVQLQQSGPGLVKPSQTLSLTCAISGDSVSSQSAGWNWIRQSPSRGLEWLGRIYYRSKWYNDYAVSVKSRITINPDTSKNQFSLQLNSVTPEDTAVYYCAREKYTVSFYDFFDYWGQGTLVTVSS VL: SYELTQPLSVSVALGQTARITCSGDNIGSMTAHWYQQKPGQAPVLVIYDKNERPSGIPERFSGSNSGNTATLTISRAQAGDEADYYCQSWDDSYTSVVFGGGTKLTVLG",
    "RECORDED_NUMBER": 17.8
  }
]
